# System: HCT-116
# procedure_summary: cells
# assay_setup: Homo sapiens, HCT-116, 72 h
property_name: log10(IC50) (log10 of the value in nM)
Transform log10 | Measure IC50 | Unit nM

Examples with their reported log10(IC50) follow.
COc1ccc2c(c1)/C(=C\c1ccc(OC)c(OC)c1)C(=O)CC2: 3.12
COc1cccc2c1CCC(=O)/C2=C/c1ccc(Cl)cc1Cl: 3.85
COc1ccc2c(c1)CCC(=O)/C2=C/c1ccc(OC)c(OC)c1OC: 3.23
COc1ccc2c(c1)CCC(=O)/C2=C/c1ccc(N(C)C)cc1: 3.94
COc1ccc2c(c1)CCC(=O)/C2=C/c1ccc(Cl)c(Cl)c1: 3.40

Provide the reported log10(IC50) of each entry below, same order.
1. COc1ccc2c(c1)CCC(=O)/C2=C/c1ccc(OC)c(O)c1
2. COc1ccc2c(c1)/C(=C\c1ccc(Cl)cc1)C(=O)CC2
3. COc1ccc2c(c1)CCC(=O)/C2=C/c1ccccc1
4. COc1ccc2c(c1)/C(=C\c1ccc(O)cc1)C(=O)CC2

Result:
2.51
3.67
2.67
3.51

Provide the reported log10(IC50) of each entry below, same order.
1. COc1ccc2c(c1)CCC(=O)/C2=C/c1ccc(OC)c(OC)c1
2. COc1ccc2c(c1)/C(=C\c1ccccc1Cl)C(=O)CC2
3. COc1ccc2c(c1)CCC(=O)/C2=C/c1ccc(C(F)(F)F)cc1
4. COc1ccc2c(c1)CCC(=O)/C2=C/c1ccccc1Cl
5. COc1cc(/C=C2/C(=O)CCc3ccc(OC)cc32)cc(OC)c1
6. COc1ccc2c(c1)CCC(=O)/C2=C/c1ccc([N+](=O)[O-])cc1
7. COc1ccc2c(c1)/C(=C\c1cc(OC)c(OC)c(OC)c1)C(=O)CC2

Result:
2.11
3.37
3.37
3.23
2.70
3.35
2.71

Provide the reported log10(IC50) of each entry below, same order.
1. COc1ccc2c(c1)/C(=C\c1cccc(O)c1)C(=O)CC2
2. COc1ccc2c(c1)CCC(=O)/C2=C/c1ccc(C(C)(C)C)cc1
3. COc1ccc2c(c1)CCC(=O)/C2=C/c1cc(OC)c(OC)c(OC)c1
4. COc1cccc2c1CCC(=O)/C2=C/c1ccc(O)cc1
5. COc1ccc2c(c1)/C(=C\c1ccc(OC)c(OC)c1OC)C(=O)CC2
6. COc1cccc2c1CCC(=O)/C2=C/c1ccc([N+](=O)[O-])cc1

Result:
1: 3.69; 2: 3.83; 3: 2.00; 4: 3.43; 5: 3.43; 6: 3.94

Provide the reported log10(IC50) of each entry below, same order.
1. COc1ccc2c(c1)CCC(=O)/C2=C/c1ccc(C)cc1
2. COc1ccc(/C=C2/C(=O)CCc3c(OC)cccc32)cc1
3. COc1ccc(/C=C\c2cc(OC)c(OC)c(OC)c2)cc1O [COMBRETASTATIN A4]
4. COc1ccc(/C=C2/C(=O)CCc3cc(OC)ccc32)cc1
5. COc1cccc2c1CCC(=O)/C2=C/c1cc(OC)c(OC)c(OC)c1
6. COc1ccc2c(c1)CCC(=O)/C2=C/c1ccc(Br)cc1

Result:
1. 3.41
2. 3.55
3. 0.00
4. 2.93
5. 3.09
6. 3.47

* * *

I'd appreciate it if you could supply pIC50 values for the items below.
# Tested on: HCT-116
# procedure_summary: cells
# assay_setup: Homo sapiens, HCT-116, 72 h
One number for each entry, as −log10 of the molar value.

Examples with their reported pIC50 follow.
COc1cccc2c1CCC(=O)/C2=C/c1c(Cl)cccc1Cl: 5.17
COc1ccc2c(c1)/C(=C\c1ccc(C)cc1)C(=O)CC2: 5.43
COc1cccc2c1CCC(=O)/C2=C/c1ccc(C(F)(F)F)cc1: 5.27

Kindly review the next molecule as well.
Q: Form field: pIC50 recorded for COc1ccc2c(c1)/C(=C\c1ccc(OC)c(O)c1)C(=O)CC2 with HCT-116 (enter value)
Result: 5.86

* * *

# Tested on: MDA-MB-435
# procedure_summary: cells
# assay_setup: Homo sapiens, MDA-MB-435, 72 h
# Description: Cytotoxicity against human MDA-MB-435 cells after 72 hrs by MTT assay
I'd appreciate it if you could supply pIC50 values for the items below.
One number for each entry, as −log10 of the molar value.

COc1ccc2c(c1)/C(=C\c1ccc(OC)c(OC)c1)C(=O)CC2: 6.05
COc1ccc2c(c1)/C(=C\c1ccc(OC)c(O)c1)C(=O)CC2: 5.98
COc1ccc2c(c1)CCC(=O)/C2=C/c1ccc(OC)c(O)c1: 6.20
COc1cc(/C=C2/C(=O)CCc3ccc(OC)cc32)cc(OC)c1: 6.07

Kindly review the next compound as well.
Q: For COc1ccc2c(c1)CCC(=O)/C2=C/c1ccc(C(F)(F)F)cc1 , what is its reported pIC50?
Result: 6.12

* * *

# Tested on: CCRF-CEM
# procedure_summary: Cytotoxicity against human CEM cells after 72 hrs by MTT assay
# Format: functional, cell-based
pIC50: −log10 of the molar value.
property_name: pIC50

COc1cccc2c1CCC(=O)/C2=C/c1ccc(C(F)(F)F)cc1: < 5.00

Provide the reported pIC50 of each entry below, same order.
1. COc1cccc2c1CCC(=O)/C2=C/c1ccc(OC)c(OC)c1OC
2. COc1ccc2c(c1)/C(=C\c1ccc(N(C)C)cc1)C(=O)CC2

Result:
< 5.00
< 5.00

* * *

# Test system: CCRF-CEM
# procedure_summary: Cytotoxicity against human CEM cells after 72 hrs by MTT assay
# Assay type: functional, cell-based
pIC50: −log10 of the molar value.
property_name: pIC50

COc1cc(/C=C2/C(=O)CCc3c(OC)cccc32)cc(OC)c1: < 5.00
COc1ccc2c(c1)/C(=C\c1ccc([N+](=O)[O-])cc1)C(=O)CC2: < 5.00

Provide the reported pIC50 of each entry below, same order.
1. COc1ccc2c(c1)/C(=C\c1ccc(C(F)(F)F)cc1)C(=O)CC2
2. COc1cccc2c1CCC(=O)/C2=C/c1ccc(C(C)(C)C)cc1
3. COc1cccc2c1CCC(=O)/C2=C/c1ccc([N+](=O)[O-])cc1

Result:
1: < 5.00; 2: < 5.00; 3: < 5.00

* * *

# Tested on: HCT-116
# procedure_summary: cells
# assay_setup: Homo sapiens, HCT-116, 72 h
property_name: IC50

Examples with their reported IC50 follow.
COc1ccc2c(c1)/C(=C\c1ccc(Cl)c(Cl)c1)C(=O)CC2: > 10 µM
COc1cccc2c1CCC(=O)/C2=C/c1ccc(C)cc1: > 10 µM
COc1ccc2c(c1)/C(=C\c1ccc(Cl)cc1Cl)C(=O)CC2: > 10 µM
COc1cccc2c1CCC(=O)/C2=C/c1ccccc1: > 10 µM
COc1cccc2c1CCC(=O)/C2=C/c1ccc(OC)c(OC)c1OC: > 10 µM

Provide the reported IC50 of each entry below, same order.
1. COc1ccc2c(c1)/C(=C\c1ccc(Br)cc1)C(=O)CC2
2. COc1ccc(/C=C2/C(=O)CCc3c(OC)cccc32)cc1O
3. COc1ccc2c(c1)/C(=C\c1ccc(C(C)(C)C)cc1)C(=O)CC2
4. COc1cc(/C=C2/C(=O)CCc3c(OC)cccc32)ccc1O
5. COc1ccc2c(c1)/C(=C\c1ccc(O)c(OC)c1)C(=O)CC2

Result:
1: > 10 µM; 2: > 10 µM; 3: > 10 µM; 4: > 10 µM; 5: > 10 µM

* * *

# Tested on: HCT-116
# procedure_summary: cells
# assay_setup: Homo sapiens, HCT-116, 72 h
property_name: pIC50
Give bare numbers, as −log10 of the molar value.

COc1ccc2c(c1)/C(=C\c1ccc(C(F)(F)F)cc1)C(=O)CC2: 5.21

Provide the reported pIC50 of each entry below, same order.
1. COc1ccc2c(c1)/C(=C\c1ccc([N+](=O)[O-])cc1)C(=O)CC2
2. COc1ccc2c(c1)/C(=C\c1ccccc1)C(=O)CC2
3. COc1ccc2c(c1)CCC(=O)/C2=C/c1ccc(Cl)cc1
4. COc1ccc2c(c1)CCC(=O)/C2=C/c1ccc(O)cc1

Result:
1: 5.05; 2: 5.49; 3: 5.90; 4: 5.95

Provide the reported pIC50 of each entry below, same order.
1. COc1ccc(/C=C2/C(=O)CCc3ccc(OC)cc32)cc1
2. COc1ccc2c(c1)CCC(=O)/C2=C/c1ccc(O)c(OC)c1

Result:
1. 5.72
2. 5.12

Value source: ChEMBL document CHEMBL2150986
